# Tested on: DMS-114
# assay_overview: NCI tumour cell line growth inhibition, 48 h
The source made the active and inactive calls. Rule as the data show it: active = GI50 up to about 1.1 µM and inactive = higher.
Classes to choose from: active, inactive

>  <compound>
COc1ccc(-c2cc(-c3cc(C)ccc3O)nc(O)n2)cc1

>  <label_class>
inactive

$$$$

Enquiry: Each compound tested received a call. Report the one for CC1(O)CCC2(C)C(=O)C1(C)CCC21OCCO1 (stereo unspecified) .
Return: inactive

Enquiry: Each compound tested received a call. Report the one for `COc1cc2ccc3c4cc(OC)c(OC)cc4c[n+](C)c3c2cc1O` .
Return: inactive

Enquiry: Each compound tested received a call. Report the one for NC1=NN(c2ccccc2)C(=O)C1/C(=N\NC(=O)c1cc2ccccc2cc1O)C(=O)Nc1cccc(C(F)(F)F)c1 (stereo unspecified) .
Return: inactive

Enquiry: Each compound tested received a call. Report the one for Cc1c2cnccc2c(C)c2c1c1ccccc1n2CC1CO1 (stereo unspecified) .
Return: active

Enquiry: Each compound tested received a call. Report the one for `c1ccc(-c2nnc(-c3nsc4ccccc34)o2)cc1` .
Return: inactive

----------
# Test system: OVCAR-4
# assay_overview: NCI tumour cell line growth inhibition, 48 h
Calls of active or inactive are those of the source. Rule as the data show it: active = GI50 up to about 1.1 µM and inactive = higher.
value_type: GI50

Known GI50 results, listed for orientation:
>  <molecule>
COC(=O)Nc1nc2cc(NS(=O)(=O)c3cccs3)ccc2[nH]1

>  <tested_target>
OVCAR-4

>  <GI50>
38.9 µM (inactive)

$$$$
>  <molecule>
CCOc1ccc(/C=C(\Cl)c2ccc(OC)cc2)cc1

>  <tested_target>
OVCAR-4

>  <GI50>
> 100 µM (inactive)

$$$$

Please report GI50 for every entry that follows.
1. Cc1ccc(NC(=O)CC/C(CC(=O)c2ccc(Cl)cc2)=N\NC(=O)C(=O)NN)cc1C
2. Oc1nc(S)nc2c1CN(CCCN1CCOCC1)CN2

Return:
1. > 100 µM (inactive)
2. 38.5 µM (inactive)

----------
Exercise: for every item that follows, state its recorded GI50.
# Test system: HOP-18
# assay_overview: NCI tumour cell line growth inhibition, 48 h
Calls of active or inactive are those of the source. Cut-off read from the data, not from the text of the source: active = GI50 up to about 1.1 µM and inactive = higher.

Please report GI50 for every entry that follows.
1. O=C(Nc1nc2ccccc2n1Cc1ccc(Cl)cc1)NC12CC3CC(CC(C3)C1)C2
2. NC(=O)CCC(NCc1c2ccccc2[n+]([O-])c2ccccc12)C(=O)O (centres undefined)
3. COC(=O)Cc1c([C@@]2(C)CCCC(C)(C)C2)ccc2c1C(=O)OC2

Return:
1. 27.6 µM (inactive)
2. 33.5 µM (inactive)
3. 18.3 µM (inactive)

Enquiry: State its GI50: CC(C)CC(NC(=O)c1cccc(O)c1O)C(=O)NCc1cc(CNC(=O)C(CC(C)C)NC(=O)c2cccc(O)c2O)cc(CNC(=O)C(CC(C)C)NC(=O)c2cccc(O)c2O)c1 (centres undefined)
Return: 24 µM (inactive)

----------
# System: 786-0
# assay_overview: NCI tumour cell line growth inhibition, 48 h
Calls of active or inactive are those of the source. No stated cut-off is given here; in the data, active = GI50 up to about 1.1 µM and inactive = higher.
Exercise: for every item that follows, state its recorded GI50.

Known GI50 results, listed for orientation:
>  <compound>
Cc1ccc([N+](=O)[O-])c2c(NCCNC(=O)c3cc(C(=O)NCCNc4ccnc5c(C)ccc([N+](=O)[O-])c45)n(C)n3)ccnc12

>  <GI50>
> 56 µM (inactive)

$$$$
>  <compound>
O=S(=O)(c1ccccc1)N1CCCC(c2ccccc2)CC1 (centres undefined)

>  <GI50>
41.9 µM (inactive)

$$$$
>  <compound>
CS(=O)(=O)c1ccc(NNc2cc(=O)[nH]c(=O)[nH]2)cc1

>  <GI50>
> 100 µM (inactive)

$$$$

Please report GI50 for every entry that follows.
1. COc1ccc2c(c1OC)C[C@@H]1c3c(cc4c(c3-2)OCO4)CCN1C
2. S=c1sc2c(s1)SCc1cccc(n1)CSc1sc(=S)sc1SCc1cccc(n1)CS2
3. CC(=O)c1ccc2c(ccc(=O)n2C)c1
4. COc1ccc(C2c3cc4c(cc3OC(NNc3ccccc3)C2C)OCO4)cc1 (centres undefined)
5. COC(=O)[C@@H]1C[C@H]2OC(=O)CC[C@]2(C)O[C@H]1[C@H]1O[C@@](C)(O)CCC[C@H]1C
6. Cc1cc(N(CCC#N)CCC#N)ccc1C(/N=N\c1ccc([N+](=O)[O-])cc1)=N\NC(=O)c1cc(Cl)ccc1O

Return:
1: 24.2 µM (inactive); 2: > 100 µM (inactive); 3: > 100 µM (inactive); 4: 22.1 µM (inactive); 5: > 50 µM (inactive); 6: 47.8 µM (inactive)
